Would you kindly list GI50 for each of these molecules?
System: SKOV-3 human ovarian cancer cell line
TEST METHOD NOTES: MTT cytostatic-cytotoxic activity, SKOV-3
Format: cell-based
RECORDED CONDITIONS: Homo sapiens, SK-OV-3, SKOV-3, 48 h treatment
One number for each entry, in µM.

For orientation, consider the following solved cases.
> print(dat)
                                chem.smiles  measured.result
1  COc1ccc(Cc2nn3c(Cc4cc(OC)c(OC)cc4S(=O)(=O)N(C)C)nnc3s2)cc1                6
2  COc1cc(Cc2nnc3sc(-c4ccccc4)nn23)c(S(=O)(=O)N(C)C)cc1OC               80
3  COc1cc(Cc2nnc3sc(-c4cccc(Cl)c4)nn23)c(S(=O)(=O)N(C)C)cc1OC               60

Consider the record given below.
Please give the documented GI50 of COc1cc(Cc2nnc3sc(/C=C/c4ccc(Cl)cc4)nn23)c(S(=O)(=O)N(C)C)cc1OC
38

---

System: C57BI/6 mice
TEST METHOD NOTES: in vivo
RECORDED CONDITIONS: i.p., acute toxicity
READOUT TYPE: LD50

> print(dat)
                                chem.smiles  readout.type  measured.result
1  COc1cc(Cc2nnc3sc(CC=Cc4ccccc4)nn23)c(S(=O)(=O)N(C)C)cc1OC          LD50        375 mg/kg

Provide LD50 values for the following items, in order.
1. COc1cc(Cc2nnc3sc(-c4ccc(N)cc4)nn23)c(S(=O)(=O)N(C)C)cc1OC
2. COc1cc(Cc2nnc3sc(-c4ccccc4N)nn23)c(S(=O)(=O)N(C)C)cc1OC
3. COc1ccc(Cc2nn3c(Cc4cc(OC)c(OC)cc4S(=O)(=O)N(C)C)nnc3s2)cc1
4. COc1cc(Cc2nnc3sc(-c4ccccc4)nn23)c(S(=O)(=O)N(C)C)cc1OC
5. COc1cc(Cc2nnc3sc(-c4ccccn4)nn23)c(S(=O)(=O)N(C)C)cc1OC

>500 mg/kg
>500 mg/kg
>500 mg/kg
>500 mg/kg
>500 mg/kg

---

Test system: T-47D human breast cancer cell line
TEST METHOD NOTES: MTT cytostatic-cytotoxic activity, T-47D
Type: cell-based
RECORDED CONDITIONS: Homo sapiens, T47D, 48 h treatment, kills 50% of the cells
READOUT TYPE: IC50

For orientation, consider the following solved cases.
> print(dat)
                                chem.smiles  measured.result
1  COc1cc(Cc2nnc3sc(-c4ccc(Cl)cc4)nn23)c(S(=O)(=O)N(C)C)cc1OC         > 100 µM
2  COc1cc(Cc2nnc3sc(-c4ccccc4N)nn23)c(S(=O)(=O)N(C)C)cc1OC         > 100 µM
3  COc1cc(Cc2nnc3sc(Cc4ccccc4)nn23)c(S(=O)(=O)N(C)C)cc1OC         > 100 µM

Consider the record given below.
Please give the documented IC50 of COc1cc(Cc2nnc3sc(/C=C/c4ccc(F)cc4)nn23)c(S(=O)(=O)N(C)C)cc1OC
76 µM

---

Tested on: SKOV-3 human ovarian cancer cell line
TEST METHOD NOTES: MTT cytostatic-cytotoxic activity, SKOV-3
Assay type: cell-based
RECORDED CONDITIONS: SKOV-3, 48 h treatment, kills 50% of the cells
pIC50: −log10 of the molar value.
Would you kindly list pIC50 for each of these compounds?

> print(dat)
                                chem.smiles  readout.type  measured.result
1  COc1cc(Cc2nnc3sc(/C=C/c4cccc(F)c4)nn23)c(S(=O)(=O)N(C)C)cc1OC         pIC50           < 4.00
2  COc1cc(Cc2nnc3sc(-c4ccccn4)nn23)c(S(=O)(=O)N(C)C)cc1OC         pIC50           < 4.00

Please give the documented pIC50 of COc1cc(Cc2nnc3sc(CC=Cc4ccccc4)nn23)c(S(=O)(=O)N(C)C)cc1OC
4.49
